# measurement_target: EGFR (Homo sapiens)
# Construct: endogenous in cells; host or cells: A431 cells (lysate, captured with SUMO1 anti-EGFR antibody)
# Sequence (P00533 25-1210): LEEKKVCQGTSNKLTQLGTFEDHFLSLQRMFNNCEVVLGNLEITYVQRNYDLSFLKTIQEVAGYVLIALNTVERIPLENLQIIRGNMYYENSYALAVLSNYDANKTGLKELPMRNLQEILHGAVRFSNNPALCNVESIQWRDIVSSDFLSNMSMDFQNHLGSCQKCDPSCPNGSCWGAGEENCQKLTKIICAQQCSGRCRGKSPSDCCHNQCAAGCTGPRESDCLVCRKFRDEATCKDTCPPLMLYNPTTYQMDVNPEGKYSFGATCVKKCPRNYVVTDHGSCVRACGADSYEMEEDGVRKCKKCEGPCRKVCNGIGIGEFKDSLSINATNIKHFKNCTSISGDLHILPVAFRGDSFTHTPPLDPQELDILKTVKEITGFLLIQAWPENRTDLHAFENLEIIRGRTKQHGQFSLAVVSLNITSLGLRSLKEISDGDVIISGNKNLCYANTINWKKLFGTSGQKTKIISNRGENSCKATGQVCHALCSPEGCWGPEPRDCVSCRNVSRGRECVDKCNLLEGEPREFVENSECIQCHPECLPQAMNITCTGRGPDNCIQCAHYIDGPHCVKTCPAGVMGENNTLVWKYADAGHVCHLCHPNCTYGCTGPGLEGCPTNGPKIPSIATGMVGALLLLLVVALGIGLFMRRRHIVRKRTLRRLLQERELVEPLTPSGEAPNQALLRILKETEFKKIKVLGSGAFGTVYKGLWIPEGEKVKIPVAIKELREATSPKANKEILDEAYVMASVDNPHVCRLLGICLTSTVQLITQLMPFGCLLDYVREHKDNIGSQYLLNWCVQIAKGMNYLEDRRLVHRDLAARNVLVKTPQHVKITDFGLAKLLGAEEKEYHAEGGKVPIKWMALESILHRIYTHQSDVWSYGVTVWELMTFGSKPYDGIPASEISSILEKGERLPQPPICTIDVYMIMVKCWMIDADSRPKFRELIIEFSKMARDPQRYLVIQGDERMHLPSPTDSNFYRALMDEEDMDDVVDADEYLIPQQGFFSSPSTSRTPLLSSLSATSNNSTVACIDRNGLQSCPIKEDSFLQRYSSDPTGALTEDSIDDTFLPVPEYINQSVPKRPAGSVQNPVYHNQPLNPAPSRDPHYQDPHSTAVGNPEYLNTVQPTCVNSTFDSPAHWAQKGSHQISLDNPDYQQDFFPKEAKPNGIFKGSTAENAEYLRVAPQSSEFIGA
# protocol_description: Biochemical EGFR Assay
# Parameters: concentration or dose not given beside the values
# Description: This assay measures the in vitro kinase activity of EGFR using ELISA. 1. Corning 96-well Elisa plates (Corning Catalog No. 25805-96). 2. SUMO1 monoclonal anti-EGFR antibody (Biochemistry Lab, SUGEN, Inc.). 3. PBS (Dulbecco's Phosphate-Buffered Saline, Gibco Catalog No. 450-1300EB). 6. […] Mix first two ingredients in about 900 ml dH2O, adjust pH to 4.0 with phosphoric acid. […] The solution should be kept in the dark at 4° C. until ready to use. […] 22. Read assay on Dynatech MR7000 ELISA reader. […]
What Biochem EGFR % Inhibition (P.167) was measured for each of the following?
The figure you give is taken to be in %; do not add the unit.

Enquiry: Report value: Biochem EGFR % Inhibition (P.167), system: EGFR (Homo sapiens), molecule: COc1c(Br)cc(C=C2C(=O)Nc3c(Br)cc(Br)c(C)c32)cc1C(C)(C)C
Return: −15.3

Enquiry: Answer with Biochem EGFR % Inhibition (P.167) of Cc1c(Br)cc(Br)c2c1C(=Cc1ccc(N(C)C)c3ccccc13)C(=O)N2 measured for EGFR (Homo sapiens).
Return: 17.6

Enquiry: Retrieve Biochem EGFR % Inhibition (P.167) on EGFR (Homo sapiens); query O=C1Nc2c(Br)cc(Br)cc2C1=Cc1cccc(C(F)(F)F)c1
Return: 41.5

Enquiry: For EGFR (Homo sapiens), give Biochem EGFR % Inhibition (P.167) of the listed molecule: O=C1Nc2ccc(I)cc2C1=Cc1cc(Br)cc(Br)c1O
Return: 65.5

Enquiry: Jot down Biochem EGFR % Inhibition (P.167) (EGFR (Homo sapiens)) of COc1cc(O)ccc1C=C1C(=O)Nc2c(Br)cc(Br)c(C)c21 .
Return: −13.9

Enquiry: Output reported Biochem EGFR % Inhibition (P.167) of the molecule Cc1c(Br)cc(Br)c2c1C(=Cc1ccccc1)C(=O)N2 on EGFR (Homo sapiens).
Return: −52.4

Enquiry: Provide Biochem EGFR % Inhibition (P.167), recorded with EGFR (Homo sapiens), of Cc1c(Br)cc(Br)c2c1C(=Cc1c(Br)cnn1-c1ccc(Cl)cc1)C(=O)N2
Return: 9.1

Enquiry: // fetch Biochem EGFR % Inhibition (P.167) for O=C1Nc2c(Br)cc(Br)cc2C1=Cc1ccc(O)c(Br)c1 ; system: EGFR (Homo sapiens)
Return: 27.3

Enquiry: Lab note: record Biochem EGFR % Inhibition (P.167) of Cc1ccc(C=C2C(=O)Nc3ccc(S(=O)(=O)N4CCOCC4)cc32)cc1 tested on EGFR (Homo sapiens).
Return: −6.0

Enquiry: Output reported Biochem EGFR % Inhibition (P.167) of the molecule O=C1Nc2ccc(S(=O)(=O)Nc3ccc(C(F)(F)F)cc3)cc2C1=Cc1cc(Br)cc(Br)c1O on EGFR (Homo sapiens).
Return: 82.4

Enquiry: Send back EGFR (Homo sapiens) Biochem EGFR % Inhibition (P.167) of Cc1c(Br)cc(Br)c2c1C(=Cc1ccc(N(C)C)cc1)C(=O)N2 only.
Return: 2.9

Enquiry: Enter Biochem EGFR % Inhibition (P.167) (test system EGFR (Homo sapiens)) for CCOc1cc(C=C2C(=O)Nc3c(Br)cc(Br)c(C)c32)ccc1O
Return: −66.8

Enquiry: Consider the molecule Cc1c(Br)cc(Br)c2c1C(=Cc1cc(Br)c(OCc3ccccc3)c(C(C)(C)C)c1)C(=O)N2 tested on EGFR (Homo sapiens); state its Biochem EGFR % Inhibition (P.167).
Return: −14.0

Enquiry: // fetch Biochem EGFR % Inhibition (P.167); item: CCN(CC)c1ccc(C=C2C(=O)Nc3ccc(S(=O)(=O)N4CCOCC4)cc32)c(O)c1 ; system: EGFR (Homo sapiens)
Return: −15.6

Enquiry: State Biochem EGFR % Inhibition (P.167) on EGFR (Homo sapiens). Entry: COc1cccc(C=C2C(=O)Nc3ccc(Br)c(C)c32)c1
Return: −0.3

Enquiry: Name the value of Biochem EGFR % Inhibition (P.167) reported for Cc1c(Br)cc(Br)c2c1C(=Cc1cc(C(C)(C)C)cc(C(C)(C)C)c1O)C(=O)N2 when tested on EGFR (Homo sapiens).
Return: −20.7

Enquiry: Tell me its Biochem EGFR % Inhibition (P.167) on EGFR (Homo sapiens): Cc1c(Br)cc(Br)c2c1C(=CC1C=CCCC1)C(=O)N2 (stereo not drawn)
Return: 0.8

Enquiry: # lookup: EGFR (Homo sapiens) Biochem EGFR % Inhibition (P.167), key = COc1ccc(Br)c(C=C2C(=O)Nc3c(Br)cc(Br)c(C)c32)c1O
Return: −16.5

----------
# measurement_target: Met receptor (EGFR/Met chimeric cells, EMR) (Homo sapiens)
# Construct: expressed in transfected cells; the other entry of the earlier key: EGFR (P00533, Epidermal growth factor receptor)
# Sequence (P08581 with tags, fused parts or gaps): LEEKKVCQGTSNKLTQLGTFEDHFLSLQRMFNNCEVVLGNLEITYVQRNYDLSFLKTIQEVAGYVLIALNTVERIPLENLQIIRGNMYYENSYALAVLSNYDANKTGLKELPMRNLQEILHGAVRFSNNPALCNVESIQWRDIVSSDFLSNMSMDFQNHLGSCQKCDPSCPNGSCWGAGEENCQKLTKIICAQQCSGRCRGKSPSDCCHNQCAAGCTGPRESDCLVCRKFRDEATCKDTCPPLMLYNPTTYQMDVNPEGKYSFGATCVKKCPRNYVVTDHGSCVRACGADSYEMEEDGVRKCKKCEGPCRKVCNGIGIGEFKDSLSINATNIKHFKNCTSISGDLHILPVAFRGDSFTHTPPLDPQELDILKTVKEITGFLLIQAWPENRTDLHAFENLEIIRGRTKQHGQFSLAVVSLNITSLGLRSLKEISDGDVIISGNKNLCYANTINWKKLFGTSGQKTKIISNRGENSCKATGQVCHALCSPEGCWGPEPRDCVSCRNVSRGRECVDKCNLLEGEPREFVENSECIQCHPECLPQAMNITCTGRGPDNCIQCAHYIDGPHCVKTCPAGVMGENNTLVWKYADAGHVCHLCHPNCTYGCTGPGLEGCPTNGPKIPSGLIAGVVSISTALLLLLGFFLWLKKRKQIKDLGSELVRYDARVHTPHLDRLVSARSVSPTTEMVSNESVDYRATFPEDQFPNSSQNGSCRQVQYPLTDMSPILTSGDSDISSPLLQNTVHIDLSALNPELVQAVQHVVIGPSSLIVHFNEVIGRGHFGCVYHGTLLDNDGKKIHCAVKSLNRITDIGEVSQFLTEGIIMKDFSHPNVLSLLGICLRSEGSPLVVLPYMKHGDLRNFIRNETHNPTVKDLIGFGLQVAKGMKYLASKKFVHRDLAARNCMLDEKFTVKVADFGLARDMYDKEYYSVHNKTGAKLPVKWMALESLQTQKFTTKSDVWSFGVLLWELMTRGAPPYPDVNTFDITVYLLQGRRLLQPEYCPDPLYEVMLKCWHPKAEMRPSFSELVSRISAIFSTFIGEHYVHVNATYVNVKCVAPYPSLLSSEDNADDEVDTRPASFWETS
# protocol_description: Met Autophosphorylation Assay
# Type: biochemical
# condition: protocol P.130
measured_metric: Met Kinase % Inhibition (P.130)

Enquiry: Item Cc1ccc(C=C2C(=O)Nc3ccc(S(=O)(=O)N4CCOCC4)cc32)c(C)c1 [10737/F03] : provide Met Kinase % Inhibition (P.130)
Return: 28.0%

Enquiry: Name the recorded Met Kinase % Inhibition (P.130) of the item CCCCOc1ccc(C=C2C(=O)Nc3ccc(Br)c(C)c32)cc1 [10740/C11] in your answer.
Return: −10.8%

Enquiry: Read off the recorded Met Kinase % Inhibition (P.130) for Cc1[nH]c2ccccc2c1C=C1C(=O)Nc2c(Br)cc(Br)c(C)c21 [10740/H08]
Return: 28.1%

Enquiry: Please supply the value of reported Met Kinase % Inhibition (P.130) for the item Cc1c(Br)cc(Br)c2c1C(=Cc1cccc(Oc3ccc(Cl)c(Cl)c3)c1)C(=O)N2 [10738/H03]
Return: 29.5%

Enquiry: Please look at this molecule and report its Met Kinase % Inhibition (P.130): Cc1c(Br)ccc2c1C(=Cc1cc(F)ccc1F)C(=O)N2 [10737/C04]
Return: 82.0%

----------
# measurement_target: Met receptor (EGFR/Met chimeric cells, EMR) (Homo sapiens)
# Construct: expressed in transfected cells; the other entry of the earlier key: EGFR (P00533, Epidermal growth factor receptor)
# protocol_description: Met Autophosphorylation Assay
# Type: biochemical
measured_metric: Met Kinase % Inhibition (P.130)
Form field: result (number plus unit)

Enquiry: Could you please provide reported Met Kinase % Inhibition (P.130) for Cc1c(Br)cc(Br)c2c1C(=Cc1cc3c4c(c1O)CCCN4CCC3)C(=O)N2 ? Thanks!
Return: 68.6%

Enquiry: Indicate its recorded Met Kinase % Inhibition (P.130); the compound in question is COc1ccc2ccccc2c1C=C1C(=O)Nc2c(Br)cc(Br)c(C)c21
Return: 25.5%

Enquiry: Item Cc1c(Br)cc(Br)c2c1C(=Cc1c[nH]c(=O)[nH]c1=O)C(=O)N2 : provide Met Kinase % Inhibition (P.130)
Return: 10.9%

Enquiry: Dear colleague, please send me the reported Met Kinase % Inhibition (P.130) for Cc1c(Br)cc(Br)c2c1C(=Cc1cc(C(F)(F)F)cc(C(F)(F)F)c1)C(=O)N2 when you can.
Return: 57.2%

Enquiry: Supply measured Met Kinase % Inhibition (P.130) of Cc1c(Br)cc(Br)c2c1C(=C1C(=O)Nc3ccc(F)cc31)C(=O)N2 in your reply.
Return: 71.2%

Enquiry: Please give the documented Met Kinase % Inhibition (P.130) of CCOc1ccc(C=C2C(=O)Nc3c(Br)cc(Br)c(C)c32)cc1OC
Return: 36.9%

Enquiry: Answer with the recorded Met Kinase % Inhibition (P.130) of COc1cccc(C=C2C(=O)Nc3c(Br)cc(Br)c(C)c32)c1OC only.
Return: 17.9%

Enquiry: Give Met Kinase % Inhibition (P.130) for Cc1cc(C=C2C(=O)Nc3c(Br)cc(Br)c(C)c32)ccc1O
Return: 44.9%

Enquiry: Find the measured Met Kinase % Inhibition (P.130) of O=C1Nc2ccc(I)cc2C1=Cc1ccccc1F and report it.
Return: 59.3%

Enquiry: State its Met Kinase % Inhibition (P.130): O=C1Nc2c(Br)cc(Br)cc2C1=Cc1ccc(Cl)cc1Cl
Return: 41.4%

Enquiry: Provide one value: measured Met Kinase % Inhibition (P.130) of Cc1c(Br)cc(Br)c2c1C(=Cc1c[nH]c3ccccc13)C(=O)N2
Return: 30.5%

Enquiry: Return the recorded Met Kinase % Inhibition (P.130) value; entry: COc1ccc2[nH]cc(C=C3C(=O)Nc4c(Br)cc(Br)c(C)c43)c2c1
Return: 12.8%

Enquiry: Respond only with Met Kinase % Inhibition (P.130) recorded for COc1cccc(C=C2C(=O)Nc3ccc(S(=O)(=O)Nc4ccc(C(F)(F)F)cc4)cc32)c1
Return: 37.8%

Enquiry: Supply recorded Met Kinase % Inhibition (P.130) for O=C1Nc2ccc(S(=O)(=O)Nc3ccc(C(F)(F)F)cc3)cc2C1=Cc1cc(Cl)cc(Cl)c1O here.
Return: 99.3%

Enquiry: Supply Met Kinase % Inhibition (P.130) value. Item: Cc1c(Br)cc(Br)c2c1C(=Cc1ccc([N+](=O)[O-])c(O)c1)C(=O)N2
Return: 69.3%

Enquiry: Fill in Met Kinase % Inhibition (P.130) for record Cc1c(Br)cc(Br)c2c1C(=Cc1ccc(N(C)C)c3ccccc13)C(=O)N2
Return: 51.9%

Enquiry: Query Met Kinase % Inhibition (P.130) for CNS(=O)(=O)c1ccc2c(c1)C(=Cc1cccc(C(F)(F)F)c1)C(=O)N2
Return: 33.7%

Enquiry: Given the compound O=C1Nc2ccc(CCCl)cc2C1=Cc1ccccc1C(F)(F)F , write its reported Met Kinase % Inhibition (P.130).
Return: 0.6%
